# target_entity: Human M3 receptor (Homo sapiens, UniProt P20309)
# Construct: purchased Perkin Elmer
# Sequence (P20309 whole entry): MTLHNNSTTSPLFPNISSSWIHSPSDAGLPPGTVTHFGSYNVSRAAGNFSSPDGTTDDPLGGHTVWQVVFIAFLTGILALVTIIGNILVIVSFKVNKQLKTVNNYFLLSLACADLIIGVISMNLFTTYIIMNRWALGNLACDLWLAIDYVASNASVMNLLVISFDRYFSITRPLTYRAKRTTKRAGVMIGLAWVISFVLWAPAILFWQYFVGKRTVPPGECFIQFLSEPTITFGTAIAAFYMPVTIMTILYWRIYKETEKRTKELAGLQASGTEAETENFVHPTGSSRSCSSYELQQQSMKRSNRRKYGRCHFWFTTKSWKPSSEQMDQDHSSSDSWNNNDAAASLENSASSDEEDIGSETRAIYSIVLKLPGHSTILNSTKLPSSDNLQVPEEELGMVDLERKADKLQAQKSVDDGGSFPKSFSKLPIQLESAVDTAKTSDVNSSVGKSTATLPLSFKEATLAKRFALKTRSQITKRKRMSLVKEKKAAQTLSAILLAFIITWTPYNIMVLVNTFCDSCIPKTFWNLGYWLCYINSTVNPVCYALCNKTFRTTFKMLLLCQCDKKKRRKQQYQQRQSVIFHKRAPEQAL
# experimental_details: M3 Receptor Radioligand Binding Assay
# experimental_parameters: human M3 receptor membranes, [3H]-N-methyl scopolamine; read-out: M3 binding affinity (Ki class)
measured_attribute: Ki

- molecule: "COc1cc(C(=O)N2CCC(C(=O)O[C@H]3CN4CCC3CC4)(c3ccccc3)CC2)ccc1OCCCCCNC[C@H](O)c1ccc(O)c2[nH]c(=O)ccc12 [Compound 3]"
  result: "1 to 10 nM"
- molecule: "O=C(Cc1ccc(OCc2ccc(CNC[C@H](O)c3ccc(O)c4[nH]c(=O)ccc34)cc2)cc1)N1CC(C(=O)O[C@H]2CN3CCC2CC3)(c2ccccc2)C1 [Compound 15A]"
  result: "< 1 nM"
- molecule: "COc1cccc(CN(CCCNC[C@H](O)c2ccc(O)c3[nH]c(=O)ccc23)C(=O)Cc2ccc(CC(=O)N3CCC(C(=O)O[C@H]4CN5CCC4CC5)(c4ccccc4)CC3)cc2)c1 [Compound 38]"
  result: "< 1 nM"

====

# target_entity: Human β2 adrenoceptor (Homo sapiens)
# Construct: purchased Perkin Elmer
# Sequence (P07550 whole entry): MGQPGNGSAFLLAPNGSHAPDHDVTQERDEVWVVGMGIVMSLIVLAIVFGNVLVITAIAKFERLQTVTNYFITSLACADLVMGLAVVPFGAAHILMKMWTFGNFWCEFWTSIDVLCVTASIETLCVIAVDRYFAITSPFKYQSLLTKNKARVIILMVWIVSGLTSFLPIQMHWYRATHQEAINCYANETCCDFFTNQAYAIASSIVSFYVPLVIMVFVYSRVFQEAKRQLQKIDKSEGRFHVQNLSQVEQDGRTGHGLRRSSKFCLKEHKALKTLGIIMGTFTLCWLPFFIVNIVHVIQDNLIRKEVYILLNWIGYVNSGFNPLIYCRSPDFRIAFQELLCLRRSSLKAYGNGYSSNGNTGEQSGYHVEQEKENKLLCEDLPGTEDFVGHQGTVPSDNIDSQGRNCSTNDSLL
# experimental_details: β2 Adrenoceptor Radioligand Binding Assay
# experimental_parameters: human β2 adrenoceptor membranes, 125-I Cyanopindolol; read-out: B2 binding affinity (Ki class)

- molecule: "O=C(c1ccc(OCCCCCCNC[C@H](O)c2ccc(O)c3[nH]c(=O)ccc23)cc1)N1CC(C(=O)O[C@H]2CN3CCC2CC3)(c2ccc(F)cc2)C1 [Compound 3A]"
  target_entity: "Human β2 adrenoceptor (Homo sapiens)"
  Ki: "< 1 nM"
- molecule: "O=C(c1ccc(OCCCCCCNC[C@H](O)c2ccc(O)c3[nH]c(=O)ccc23)cc1)N1CCC(C(=O)O[C@H]2CN3CCC2CC3)(c2ccc(Br)cc2)CC1 [Compound 50]"
  target_entity: "Human β2 adrenoceptor (Homo sapiens)"
  Ki: "< 1 nM"
- molecule: "O=C(NCc1ccc(C(=O)N2CC(C(=O)O[C@H]3CN4CCC3CC4)(c3ccccc3)C2)cc1)c1ccc(CNC[C@H](O)c2ccc(O)c3[nH]c(=O)ccc23)cc1 [Compound 17A]"
  target_entity: "Human β2 adrenoceptor (Homo sapiens)"
  Ki: "< 1 nM"
- molecule: "Cc1cc(CC(=O)N2CCC(C(=O)O[C@H]3CN4CCC3CC4)(c3ccccc3)CC2)ccc1OCCCCCNC[C@H](O)c1ccc(O)c2[nH]c(=O)ccc12 [Compound 12]"
  target_entity: "Human β2 adrenoceptor (Homo sapiens)"
  Ki: "> 10 nM"
- molecule: "O=C(Cc1ccc(OCCCCCNC[C@H](O)c2ccc(O)c3[nH]c(=O)ccc23)cc1)N1CCC(C(=O)O[C@H]2CN3CCC2CC3)(c2ccccc2)CC1 [Compound 8]"
  target_entity: "Human β2 adrenoceptor (Homo sapiens)"
  Ki: "< 1 nM"
- molecule: "CC(=O)N(Cc1ccc(CNC[C@H](O)c2ccc(O)c3[nH]c(=O)ccc23)cc1)Cc1ccc(C(=O)N2CCC(C(=O)O[C@H]3CN4CCC3CC4)(c3ccccc3)CC2)cc1 [Compound 57]"
  target_entity: "Human β2 adrenoceptor (Homo sapiens)"
  Ki: "1 to 10 nM"
- molecule: "O=C(Cc1ccc(OCCCCCNC[C@H](O)c2ccc(O)c3[nH]c(=O)ccc23)c(F)c1)N1CCC(C(=O)O[C@H]2CN3CCC2CC3)(c2ccccc2)CC1 [Compound 13]"
  target_entity: "Human β2 adrenoceptor (Homo sapiens)"
  Ki: "> 10 nM"
- molecule: "O=C(c1cccc(OCCCCCNC[C@H](O)c2ccc(O)c3[nH]c(=O)ccc23)c1)N1CCC(C(=O)O[C@H]2CN3CCC2CC3)(c2ccccc2)CC1 [Compound 2]"
  target_entity: "Human β2 adrenoceptor (Homo sapiens)"
  Ki: "< 1 nM"
- molecule: "O=C(c1ccc(OCCCCCNC[C@H](O)c2ccc(O)c3[nH]c(=O)ccc23)cc1)N1CC(C(=O)O[C@H]2CN3CCC2CC3)(c2ccccc2)C1 [Compound 1A]"
  target_entity: "Human β2 adrenoceptor (Homo sapiens)"
  Ki: "< 1 nM"
- molecule: "O=C(Cc1cccc(OCCCCCNC[C@H](O)c2ccc(O)c3[nH]c(=O)ccc23)c1)N1CCC(C(=O)O[C@H]2CN3CCC2CC3)(c2ccccc2)CC1 [Compound 11]"
  target_entity: "Human β2 adrenoceptor (Homo sapiens)"
  Ki: "< 1 nM"
- molecule: "O=C(c1ccc(OCc2ccc(CCNC[C@H](O)c3ccc(O)c4[nH]c(=O)ccc34)cc2)cc1)N1CCC(C(=O)O[C@H]2CN3CCC2CC3)(c2ccccc2)CC1 [Compound 26]"
  target_entity: "Human β2 adrenoceptor (Homo sapiens)"
  Ki: "< 1 nM"
- molecule: "O=C(c1ccc(OCCCCCNC[C@H](O)c2ccc(O)c3[nH]c(=O)ccc23)c(F)c1)N1CCC(C(=O)O[C@H]2CN3CCC2CC3)(c2ccccc2)CC1 [Compound 9]"
  target_entity: "Human β2 adrenoceptor (Homo sapiens)"
  Ki: "> 10 nM"
- molecule: "O=C(CCc1ccc(C(=O)N(CCCNC[C@H](O)c2ccc(O)c3[nH]c(=O)ccc23)Cc2ccccc2)cc1)N1CCC(C(=O)O[C@H]2CN3CCC2CC3)(c2ccccc2)CC1 [Compound 54]"
  target_entity: "Human β2 adrenoceptor (Homo sapiens)"
  Ki: "1 to 10 nM"
- molecule: "O=C(Cc1ccc(CC(=O)N(CCCNC[C@H](O)c2ccc(O)c3[nH]c(=O)ccc23)Cc2ccccc2)cc1)N1CCC(C(=O)O[C@H]2CN3CCC2CC3)(c2ccccc2)CC1 [Compound 36]"
  target_entity: "Human β2 adrenoceptor (Homo sapiens)"
  Ki: "< 1 nM"
- molecule: "O=C(Cc1ccc(OCCCCCNC[C@H](O)c2ccc(O)c3[nH]c(=O)ccc23)cc1)N1CC(C(=O)O[C@H]2CN3CCC2CC3)(c2ccccc2)C1 [Compound 6A]"
  target_entity: "Human β2 adrenoceptor (Homo sapiens)"
  Ki: "< 1 nM"
- molecule: "O=C(c1cc(Cl)c(OCCCCCNC[C@H](O)c2ccc(O)c3[nH]c(=O)ccc23)c(Cl)c1)N1CCC(C(=O)O[C@H]2CN3CCC2CC3)(c2ccccc2)CC1 [Compound 5]"
  target_entity: "Human β2 adrenoceptor (Homo sapiens)"
  Ki: "1 to 10 nM"
- molecule: "CCN(CCCNC[C@H](O)c1ccc(O)c2[nH]c(=O)ccc12)C(=O)c1ccc(C(=O)N2CCC(C(=O)O[C@H]3CN4CCC3CC4)(c3ccccc3)CC2)cc1 [Compound 25]"
  target_entity: "Human β2 adrenoceptor (Homo sapiens)"
  Ki: "1 to 10 nM"
- molecule: "CN(CCCNC[C@H](O)c1ccc(O)c2[nH]c(=O)ccc12)C(=O)c1ccc(C(=O)N2CCC(C(=O)O[C@H]3CN4CCC3CC4)(c3ccccc3)CC2)s1 [Compound 27]"
  target_entity: "Human β2 adrenoceptor (Homo sapiens)"
  Ki: "< 1 nM"
- molecule: "O=C(Cc1ccc(CC(=O)N2CCC(C(=O)O[C@H]3CN4CCC3CC4)(c3ccccc3)CC2)cc1)NCCCNC[C@H](O)c1ccc(O)c2[nH]c(=O)ccc12 [Compound 46]"
  target_entity: "Human β2 adrenoceptor (Homo sapiens)"
  Ki: "> 10 nM"
- molecule: "O=C(c1ccc(OCCCCCCNC[C@H](O)c2ccc(O)c3[nH]c(=O)ccc23)cc1)N1CC(C(=O)O[C@H]2CN3CCC2CC3)(c2ccccc2)C1 [Compound 2A]"
  target_entity: "Human β2 adrenoceptor (Homo sapiens)"
  Ki: "< 1 nM"
- molecule: "O=C(NCCCCNC[C@H](O)c1ccc(O)c2[nH]c(=O)ccc12)c1ccc(C(=O)N2CCC(C(=O)O[C@H]3CN4CCC3CC4)(c3ccccc3)CC2)s1 [Compound 21]"
  target_entity: "Human β2 adrenoceptor (Homo sapiens)"
  Ki: "< 1 nM"
- molecule: "O=C(Cc1ccc(OCCCCNC[C@H](O)c2ccc(O)c3[nH]c(=O)ccc23)cc1)N1CCC(C(=O)O[C@H]2CN3CCC2CC3)(c2ccccc2)CC1 [Compound 30]"
  target_entity: "Human β2 adrenoceptor (Homo sapiens)"
  Ki: "< 1 nM"

====

# target_entity: Human M3 receptor (Homo sapiens)
# Construct: purchased Perkin Elmer
# experimental_details: M3 Receptor Radioligand Binding Assay
# experimental_parameters: human M3 receptor membranes, [3H]-N-methyl scopolamine; read-out: M3 binding affinity (Ki class)
pKi: −log10 of the molar value.

- compound: "O=C(c1ccc(OCCCCCCNC[C@H](O)c2ccc(O)c3[nH]c(=O)ccc23)cc1)N1CC(C(=O)O[C@H]2CN3CCC2CC3)(c2ccc(F)cc2)C1"
  pKi: "8.00 to 9.00"
- compound: "O=C(Cc1cccc(OCCCCCNC[C@H](O)c2ccc(O)c3[nH]c(=O)ccc23)c1)N1CCC(C(=O)O[C@H]2CN3CCC2CC3)(c2ccccc2)CC1"
  pKi: "8.00 to 9.00"
- compound: "CCN(CCCNC[C@H](O)c1ccc(O)c2[nH]c(=O)ccc12)C(=O)c1ccc(CCC(=O)N2CC(C(=O)O[C@H]3CN4CCC3CC4)(c3ccccc3)C2)cc1 [Compound 12A]"
  pKi: "8.00 to 9.00"
- compound: "O=C(c1ccc(OCCCCCCNC[C@H](O)c2ccc(O)c3[nH]c(=O)ccc23)cc1)N1CCC(C(=O)O[C@H]2CN3CCC2CC3)(c2ccccc2)CC1"
  pKi: "> 9.00"
- compound: "O=C(CCc1ccc(OCc2ccc(CNC[C@H](O)c3ccc(O)c4[nH]c(=O)ccc34)cc2)cc1)N1CCC(C(=O)O[C@H]2CN3CCC2CC3)(c2ccccc2)CC1"
  pKi: "8.00 to 9.00"
- compound: "O=C(c1ccc(OCCCCCNC[C@H](O)c2ccc(O)c3[nH]c(=O)ccc23)cc1)N1CCC(C(=O)O[C@H]2CN3CCC2CC3)(c2ccccc2)CC1"
  pKi: "> 9.00"
- compound: "Cc1ccc(CN(CCCNC[C@H](O)c2ccc(O)c3[nH]c(=O)ccc23)C(=O)Cc2ccc(CC(=O)N3CCC(C(=O)O[C@H]4CN5CCC4CC5)(c4ccccc4)CC3)cc2)cc1"
  pKi: "> 9.00"
- compound: "O=C(Cc1ccc(CC(=O)N2CCC(C(=O)O[C@H]3CN4CCC3CC4)(c3ccccc3)CC2)cc1)NCCCNC[C@H](O)c1ccc(O)c2[nH]c(=O)ccc12"
  pKi: "< 8.00"
- compound: "CC(=O)N(Cc1ccc(CNC[C@H](O)c2ccc(O)c3[nH]c(=O)ccc23)cc1)Cc1ccc(C(=O)N2CCC(C(=O)O[C@H]3CN4CCC3CC4)(c3ccccc3)CC2)cc1"
  pKi: "> 9.00"
- compound: "O=C(c1ccc(C(=O)N(CCCNC[C@H](O)c2ccc(O)c3[nH]c(=O)ccc23)Cc2ccccc2)s1)N1CCC(C(=O)O[C@H]2CN3CCC2CC3)(c2ccccc2)CC1"
  pKi: "8.00 to 9.00"
- compound: "O=C(Cc1ccc(OCCCCCNC[C@H](O)c2ccc(O)c3[nH]c(=O)ccc23)c(-c2ccsc2)c1)N1CCC(C(=O)O[C@H]2CN3CCC2CC3)(c2ccccc2)CC1"
  pKi: "8.00 to 9.00"
